- Tested on: HepG2
- experimentalDetails: Cytotoxicity against human HepG2 cells after 72 hrs by resazurin assay
- Type: cell-based
- measurementConditions: hepg2, 72 h, 72 h
metric: CC50

Query: CC50; subject: CC(=O)N1c2cccc(O)c2NC2=C(C(=O)CC(C)(C)C2)C1c1ccc(OCc2ccccc2)cc1Cl (single isomer, unassigned; 7b)
> 25 µM

----------
- experimentalDetails: Cytotoxicity against CMV-Luc transfected human HuH7 cells after 5 days
- Assay type: cell-based, Huh-7
- measurementConditions: huh-7, 120 h, 120 h
Friendly reminder: CC50 below 20 µM is YES, at or above is NO.

CC(=O)N1c2ccccc2NC2=C(C(=O)CC(C)(C)C2)C1c1ccc(OCc2ccccc2)cc1Cl (single isomer, unassigned; 5a) : NO
CC(=O)N1c2cccc(O)c2NC2=C(C(=O)CC(C)(C)C2)C1c1ccc(OCc2ccccc2)cc1Cl (single isomer, unassigned; 7b) : YES

I wonder whether CC(=O)N1c2cccc(O)c2NC2=C(C(=O)CC(C)(C)C2)C1c1ccc(OCc2ccccc2)cc1Cl (single isomer, unassigned; 7a) has CC50 below 20 µM. Can you tell?
YES

# TODO verify CC50 < 20 µM strictly for this molecule: CC(=O)N1c2ccccc2NC2=C(C(=O)CC(C)(C)C2)C1c1ccc(OCc2ccccc2)cc1Cl (single isomer, unassigned; 5b)
NO

Hello, I'm reviewing records and need to know if CC50 of CC(=O)N1c2ccccc2NC2=C(C(=O)CC(C)(C)C2)C1c1ccc(OCc2ccccc2)c(Cl)c1 (single isomer, unassigned; 4b) is below 20 µM. Could you check?
NO

Field: below-cutoff. Rule: recorded CC50 strictly less than 20 µM. Subject: CC(=O)N1c2ccccc2NC2=C(C(=O)CC(C)(C)C2)C1c1ccc(OCc2ccccc2)cc1 (single isomer, unassigned; 3a)
YES

Please state whether CC50 is below 20 µM for CC(=O)N1c2ccccc2NC2=C(C(=O)CC(C)(C)C2)C1c1ccc(OCc2ccccc2)c(Cl)c1 (single isomer, unassigned; 4a)
NO

----------
- experimentalDetails: Cytotoxicity against human HEK293T cells after 72 hrs by resazurin assay
- Type: cell-based, HEK-293T
metric: CC50 at 72 h

Endpoint output: CC50 at 72 h of CC(=O)N1c2cccc(O)c2NC2=C(C(=O)CC(C)(C)C2)C1c1ccc(OCc2ccccc2)cc1Cl (single isomer, unassigned; 7a) . Value?
> 25 µM

----------
- Test system: MT4
- experimentalDetails: Cytotoxicity against LTR-Luc transfected human MT4 cells […] after 3 days by ATPLite assay
- Assay type: cell-based
- measurementConditions: mt4, 72 h, 72 h
metric: CC50 (µM)
Answers are plain numbers, in µM.

CC(=O)N1c2ccccc2NC2=C(C(=O)CC(C)(C)C2)C1c1ccc(OCc2ccccc2)cc1 (single isomer, unassigned; 3b) : 18.3
CC(=O)N1c2ccccc2NC2=C(C(=O)CC(C)(C)C2)C1c1ccc(OCc2ccccc2)cc1Cl (single isomer, unassigned; 5a) : 19.5
CC(=O)N1c2ccccc2NC2=C(C(=O)CC(C)(C)C2)C1c1ccc(OCc2ccccc2)c(Cl)c1 (single isomer, unassigned; 4a) : 16.4
CC(=O)N1c2ccccc2NC2=C(C(=O)CC(C)(C)C2)C1c1ccc(OCc2ccccc2)c(Cl)c1 (single isomer, unassigned; 4b) : 12.9
CC(=O)N1c2ccccc2NC2=C(C(=O)CC(C)(C)C2)C1c1ccc(OCc2ccccc2)cc1 (single isomer, unassigned; 3a) : 22.2

Give measured CC50 for every item shown.
1. CC(=O)N1c2cccc(O)c2NC2=C(C(=O)CC(C)(C)C2)C1c1ccc(OCc2ccccc2)cc1Cl (single isomer, unassigned; 7b)
2. CC(=O)N1c2cccc(O)c2NC2=C(C(=O)CC(C)(C)C2)C1c1ccc(OCc2ccccc2)cc1Cl (single isomer, unassigned; 7a)
3. CC(=O)N1c2ccccc2NC2=C(C(=O)CC(C)(C)C2)C1c1ccc(OCc2ccccc2)cc1Cl (single isomer, unassigned; 5b)

1. 14.4
2. 16.2
3. 17.3
